- system_name: Tyrosine-protein kinase ABL1 (Homo sapiens); also: in the data inactive means no Kd found up to 30 µM
- Sequence (P00519 whole entry): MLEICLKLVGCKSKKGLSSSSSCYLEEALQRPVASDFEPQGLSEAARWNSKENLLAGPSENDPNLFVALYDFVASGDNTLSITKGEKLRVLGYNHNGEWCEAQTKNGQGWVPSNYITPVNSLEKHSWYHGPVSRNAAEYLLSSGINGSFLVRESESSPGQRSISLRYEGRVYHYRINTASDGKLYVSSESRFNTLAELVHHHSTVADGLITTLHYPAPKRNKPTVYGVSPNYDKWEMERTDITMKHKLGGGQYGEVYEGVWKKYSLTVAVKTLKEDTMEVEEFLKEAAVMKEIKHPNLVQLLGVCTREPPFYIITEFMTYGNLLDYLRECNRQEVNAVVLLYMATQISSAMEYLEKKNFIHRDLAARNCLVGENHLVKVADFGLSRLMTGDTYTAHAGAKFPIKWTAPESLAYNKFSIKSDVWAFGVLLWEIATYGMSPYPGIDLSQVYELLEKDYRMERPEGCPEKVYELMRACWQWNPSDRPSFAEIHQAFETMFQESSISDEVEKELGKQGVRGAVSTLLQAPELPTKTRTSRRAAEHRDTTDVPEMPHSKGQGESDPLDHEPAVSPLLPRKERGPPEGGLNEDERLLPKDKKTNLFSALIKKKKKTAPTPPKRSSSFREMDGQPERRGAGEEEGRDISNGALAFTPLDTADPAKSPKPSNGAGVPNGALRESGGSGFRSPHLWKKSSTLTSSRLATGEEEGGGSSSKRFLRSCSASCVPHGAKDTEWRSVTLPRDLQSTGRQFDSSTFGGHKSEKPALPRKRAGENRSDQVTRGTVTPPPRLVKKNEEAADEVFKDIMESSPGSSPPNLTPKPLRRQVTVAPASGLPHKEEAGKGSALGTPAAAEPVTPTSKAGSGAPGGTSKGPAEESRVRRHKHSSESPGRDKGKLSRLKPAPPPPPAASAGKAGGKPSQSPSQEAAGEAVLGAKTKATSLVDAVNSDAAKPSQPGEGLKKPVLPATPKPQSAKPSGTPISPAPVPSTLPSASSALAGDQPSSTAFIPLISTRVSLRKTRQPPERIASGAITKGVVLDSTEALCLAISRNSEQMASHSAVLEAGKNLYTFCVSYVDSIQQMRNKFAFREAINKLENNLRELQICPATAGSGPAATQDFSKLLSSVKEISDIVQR
Active and inactive are the calls of the source.
Could you please pick one outcome from this set? active, inactive

Check out these entries, answers already filled in.
compound	system_name	class
C=CC(=O)Nc1cccc(Nc2nc(Nc3ccc(N4CCN(C(C)=O)CC4)cc3OC)ncc2C(F)(F)F)c1	Tyrosine-protein kinase ABL1 (Homo sapiens)	inactive
O=C(O)c1ccc2c(c1)nc(Nc1cccc(Cl)c1)c1ccncc12	Tyrosine-protein kinase ABL1 (Homo sapiens)	inactive
COc1cccc(Nc2ncnn3ccc(CN4CC[C@@H](N)[C@H](O)C4)c23)c1	Tyrosine-protein kinase ABL1 (Homo sapiens)	active
CCN1CCN(Cc2ccc(Nc3ncc(F)c(-c4cc(F)c5nc(C)n(C(C)C)c5c4)n3)nc2)CC1	Tyrosine-protein kinase ABL1 (Homo sapiens)	inactive
Cc1cc(Nc2nc(N[C@@H](C)c3ncc(F)cn3)ncc2Cl)n[nH]1	Tyrosine-protein kinase ABL1 (Homo sapiens)	inactive
FC(F)(F)c1ccc(CNc2ccc(Cc3c[nH]c4ncc(Cl)cc34)cn2)cn1	Tyrosine-protein kinase ABL1 (Homo sapiens)	inactive

Record request — test call for COc1ccc2c(OCc3nnc4ccc(-c5ccccc5)nn34)ccnc2c1
inactive

Record request — test call for Cc1c(Cn2c(C)nc3c(C(=O)O)cc(N4CCOCC4)cc32)cccc1C(F)(F)F
inactive

Record request — test call for NC[C@@](O)(c1ccc(Cl)cc1)c1ccc(-c2cn[nH]c2)cc1
inactive

* * *

- system_name: Mitogen-activated protein kinase 11 (Homo sapiens); also: in the data inactive means no Kd found up to 30 µM
- Sequence (Q15759 whole entry): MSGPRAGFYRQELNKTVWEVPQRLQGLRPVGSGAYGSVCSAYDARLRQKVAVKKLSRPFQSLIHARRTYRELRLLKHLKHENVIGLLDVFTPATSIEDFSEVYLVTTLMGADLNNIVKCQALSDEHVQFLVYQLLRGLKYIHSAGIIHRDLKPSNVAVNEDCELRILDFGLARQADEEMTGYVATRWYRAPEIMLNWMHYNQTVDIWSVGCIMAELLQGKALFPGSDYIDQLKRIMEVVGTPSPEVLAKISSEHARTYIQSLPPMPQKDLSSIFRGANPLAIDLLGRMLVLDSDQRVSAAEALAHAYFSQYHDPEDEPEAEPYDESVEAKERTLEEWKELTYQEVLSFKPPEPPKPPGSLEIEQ
Activity calls are given as the source filed them.
Listing of recorded Kd by entry.

Entry COc1cc2ncnc(Nc3ccc(F)c(Cl)c3)c2cc1NC(=O)/C=C/CN1CCCCC1 [DACOMITINIB ANHYDROUS] — recorded Kd = > 30 µM (inactive)

* * *

- system_name: Serine/threonine-protein kinase N2 (Homo sapiens, UniProt Q16513); also: in the data inactive means no Kd found up to 30 µM
- Sequence (Q16513 whole entry): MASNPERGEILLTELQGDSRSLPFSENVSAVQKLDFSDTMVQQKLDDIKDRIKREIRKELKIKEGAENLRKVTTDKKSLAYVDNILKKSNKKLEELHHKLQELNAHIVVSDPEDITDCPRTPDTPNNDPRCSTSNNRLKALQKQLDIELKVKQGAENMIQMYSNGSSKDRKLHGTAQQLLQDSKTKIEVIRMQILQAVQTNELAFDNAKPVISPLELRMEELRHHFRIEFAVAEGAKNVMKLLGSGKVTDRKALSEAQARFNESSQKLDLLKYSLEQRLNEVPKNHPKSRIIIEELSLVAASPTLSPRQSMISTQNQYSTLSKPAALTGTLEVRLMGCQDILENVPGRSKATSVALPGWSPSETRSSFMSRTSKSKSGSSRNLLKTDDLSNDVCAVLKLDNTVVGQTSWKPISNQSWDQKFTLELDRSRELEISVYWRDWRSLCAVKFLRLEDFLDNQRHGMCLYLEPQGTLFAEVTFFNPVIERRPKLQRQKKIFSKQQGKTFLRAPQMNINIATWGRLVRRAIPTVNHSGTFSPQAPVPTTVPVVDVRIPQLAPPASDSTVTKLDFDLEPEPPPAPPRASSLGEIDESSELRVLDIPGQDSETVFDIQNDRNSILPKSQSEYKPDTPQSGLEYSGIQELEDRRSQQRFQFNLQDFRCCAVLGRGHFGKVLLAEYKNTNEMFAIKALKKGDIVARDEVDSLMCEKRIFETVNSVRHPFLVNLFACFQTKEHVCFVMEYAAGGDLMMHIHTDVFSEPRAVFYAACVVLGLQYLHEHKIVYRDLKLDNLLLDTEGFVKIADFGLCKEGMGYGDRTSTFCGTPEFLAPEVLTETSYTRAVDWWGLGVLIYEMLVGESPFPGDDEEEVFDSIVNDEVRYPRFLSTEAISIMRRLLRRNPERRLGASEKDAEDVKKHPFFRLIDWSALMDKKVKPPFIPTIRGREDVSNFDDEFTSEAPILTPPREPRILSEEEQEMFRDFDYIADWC
Activity calls are given as the source filed them.
Could you please pick one outcome from this set? active, inactive

Check out these entries, answers already filled in.
compound	class
CNC(=O)c1cccc(-c2ccc3c(N4CCOC[C@@H]4C)nc(N4CCOC[C@@H]4C)nc3n2)c1 [VISTUSERTIB]	inactive
CNC(=O)c1cc(COc2nnc(Nc3ccc(Cl)cc3)c3ccoc23)ccn1 [TELATINIB]	inactive
O=S(=O)(c1cccc2c(O)nccc12)N1CCCNCC1 [HYDROXYFASUDIL]	active

Now consider the entry below.
Record request — test call for CC1(COc2ccc3c(c2)ncn3-c2ccc3cccc(N4CCC(N)CC4)c3n2)COC1 [CRENOLANIB]
active

* * *

- system_name: Citron Rho-interacting kinase (Homo sapiens, UniProt O14578); also: in the data inactive means no Kd found up to 30 µM
- Sequence (O14578 whole entry): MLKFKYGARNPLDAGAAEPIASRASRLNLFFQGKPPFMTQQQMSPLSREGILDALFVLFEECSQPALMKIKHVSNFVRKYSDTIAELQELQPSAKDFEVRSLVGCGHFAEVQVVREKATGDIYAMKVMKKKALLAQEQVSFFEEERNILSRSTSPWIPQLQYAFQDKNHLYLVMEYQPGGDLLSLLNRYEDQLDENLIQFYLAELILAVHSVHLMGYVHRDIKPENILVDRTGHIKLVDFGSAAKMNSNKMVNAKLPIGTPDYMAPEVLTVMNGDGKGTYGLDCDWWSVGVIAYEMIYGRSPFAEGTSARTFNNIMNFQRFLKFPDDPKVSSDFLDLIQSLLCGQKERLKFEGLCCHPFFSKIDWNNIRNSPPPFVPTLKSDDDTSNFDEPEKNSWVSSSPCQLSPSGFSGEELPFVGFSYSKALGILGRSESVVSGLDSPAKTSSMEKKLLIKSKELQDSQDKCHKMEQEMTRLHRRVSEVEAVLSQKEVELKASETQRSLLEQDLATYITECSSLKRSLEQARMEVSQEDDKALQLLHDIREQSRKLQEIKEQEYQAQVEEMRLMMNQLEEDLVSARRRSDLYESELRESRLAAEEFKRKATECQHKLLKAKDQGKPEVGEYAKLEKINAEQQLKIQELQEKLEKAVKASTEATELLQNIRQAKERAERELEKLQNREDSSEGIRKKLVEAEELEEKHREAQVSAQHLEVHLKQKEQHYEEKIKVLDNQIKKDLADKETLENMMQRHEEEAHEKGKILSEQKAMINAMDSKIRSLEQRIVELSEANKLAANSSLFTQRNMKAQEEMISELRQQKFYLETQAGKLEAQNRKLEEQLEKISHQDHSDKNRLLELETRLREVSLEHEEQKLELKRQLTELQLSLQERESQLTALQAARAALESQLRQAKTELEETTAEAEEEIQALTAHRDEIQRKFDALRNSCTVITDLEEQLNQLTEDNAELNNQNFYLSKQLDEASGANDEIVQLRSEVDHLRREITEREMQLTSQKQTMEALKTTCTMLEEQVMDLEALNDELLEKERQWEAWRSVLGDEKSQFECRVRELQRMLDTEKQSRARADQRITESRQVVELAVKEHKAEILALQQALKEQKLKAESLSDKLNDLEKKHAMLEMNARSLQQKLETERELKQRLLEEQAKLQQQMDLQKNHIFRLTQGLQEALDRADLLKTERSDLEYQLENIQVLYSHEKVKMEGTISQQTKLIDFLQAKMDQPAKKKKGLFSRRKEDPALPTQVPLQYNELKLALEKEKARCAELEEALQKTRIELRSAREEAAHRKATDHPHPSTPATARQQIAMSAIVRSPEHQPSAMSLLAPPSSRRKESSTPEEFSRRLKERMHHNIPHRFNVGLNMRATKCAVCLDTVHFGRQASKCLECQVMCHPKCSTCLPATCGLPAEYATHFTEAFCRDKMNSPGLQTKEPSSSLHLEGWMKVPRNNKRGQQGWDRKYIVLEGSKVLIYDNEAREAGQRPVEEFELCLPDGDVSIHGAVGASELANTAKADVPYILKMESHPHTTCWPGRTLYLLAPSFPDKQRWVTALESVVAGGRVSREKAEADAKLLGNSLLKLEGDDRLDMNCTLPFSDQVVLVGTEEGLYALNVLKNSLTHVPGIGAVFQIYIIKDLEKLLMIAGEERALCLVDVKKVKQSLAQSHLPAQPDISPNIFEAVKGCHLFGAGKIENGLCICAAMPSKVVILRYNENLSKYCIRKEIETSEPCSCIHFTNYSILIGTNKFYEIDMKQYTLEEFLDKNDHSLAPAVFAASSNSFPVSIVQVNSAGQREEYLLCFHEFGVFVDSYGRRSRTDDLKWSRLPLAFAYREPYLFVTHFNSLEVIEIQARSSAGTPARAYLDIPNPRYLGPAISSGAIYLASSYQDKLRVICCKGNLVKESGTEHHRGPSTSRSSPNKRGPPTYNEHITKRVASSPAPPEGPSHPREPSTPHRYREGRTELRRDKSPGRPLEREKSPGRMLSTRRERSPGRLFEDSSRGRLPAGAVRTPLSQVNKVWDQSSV
Activity calls are given as the source filed them.
Could you please pick one outcome from this set? y for active, n for inactive

compound	class
O=S(=O)(c1cccc2c(O)nccc12)N1CCCNCC1 [HYDROXYFASUDIL]	n
O=c1[nH]c([C@@H]2CCCN2)nc2c1oc1ccc(Cl)cc12	y
CNC(=O)c1ccc(Nc2ncc(C(F)(F)F)c(NCc3nccnc3N(C)S(C)(=O)=O)n2)cc1	n
C=CC(=O)Nc1cc(Nc2nccc(-c3cn(C)c4ccccc34)n2)c(OC)cc1N(C)CCN(C)C	n

Record request — test call for C[C@]1(O)C[C@@H](c2nc(-c3ccc4ccc(-c5ccccc5)nc4c3)c3c(N)nccn32)C1
n

* * *

- system_name: Receptor-interacting serine/threonine-protein kinase 2 (Homo sapiens, UniProt O43353); also: in the data inactive means no Kd found up to 30 µM
- Sequence (O43353 whole entry): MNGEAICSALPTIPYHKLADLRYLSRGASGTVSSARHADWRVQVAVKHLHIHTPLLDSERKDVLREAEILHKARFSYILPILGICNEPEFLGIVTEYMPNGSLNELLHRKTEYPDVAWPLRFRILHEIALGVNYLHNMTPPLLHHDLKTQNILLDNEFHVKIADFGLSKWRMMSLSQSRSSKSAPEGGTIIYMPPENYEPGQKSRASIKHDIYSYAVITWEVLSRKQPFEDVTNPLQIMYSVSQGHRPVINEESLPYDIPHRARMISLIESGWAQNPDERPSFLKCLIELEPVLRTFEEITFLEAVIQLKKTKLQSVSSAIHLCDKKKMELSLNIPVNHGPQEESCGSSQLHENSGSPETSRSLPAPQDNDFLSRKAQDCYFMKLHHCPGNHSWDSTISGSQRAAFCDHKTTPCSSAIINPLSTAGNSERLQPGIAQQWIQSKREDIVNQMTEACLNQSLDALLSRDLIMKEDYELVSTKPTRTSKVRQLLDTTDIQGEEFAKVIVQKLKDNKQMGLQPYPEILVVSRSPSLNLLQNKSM
Activity calls are given as the source filed them.
Could you please pick one outcome from this set? active, inactive

compound	system_name	class
Cc1c(NC(=O)OC[C@@H]2COCCN2)cn2ncnc(Nc3ccc4c(cnn4Cc4cccc(F)c4)c3)c12 [AC-480]	Receptor-interacting serine/threonine-protein kinase 2 (Homo sapiens, UniProt O43353)	inactive
Cn1cc(-c2[nH]c3cc(NC(=O)[C@H](N)C4CCCCC4)cc4c3c2C=NNC4=O)cn1	Receptor-interacting serine/threonine-protein kinase 2 (Homo sapiens, UniProt O43353)	inactive
C=CCN(/C=C1/C(=O)O[C@H](COC)[C@@]2(C)C1=C(O)C(=O)C1=C2[C@H](OC(C)=O)C[C@]2(C)C(=O)CC[C@@H]12)CC=C [SONOLISIB]	Receptor-interacting serine/threonine-protein kinase 2 (Homo sapiens, UniProt O43353)	inactive
C[C@@H]1COC(Nc2ccc3ncnc(Nc4ccc(OCc5nccs5)c(Cl)c4)c3c2)=N1 [VARLITINIB]	Receptor-interacting serine/threonine-protein kinase 2 (Homo sapiens, UniProt O43353)	active
C#Cc1cccc(Nc2ncnc3cc4c(cc23)OCCOCCOCCO4)c1 [ICOTINIB]	Receptor-interacting serine/threonine-protein kinase 2 (Homo sapiens, UniProt O43353)	active
COc1ccc2c(OCc3nnc4ccc(-c5ccccc5)nn34)ccnc2c1 [AMG-208]	Receptor-interacting serine/threonine-protein kinase 2 (Homo sapiens, UniProt O43353)	inactive
COc1cccc(Nc2ncnn3ccc(CN4CC[C@@H](N)[C@H](O)C4)c23)c1 [BMS-690514]	Receptor-interacting serine/threonine-protein kinase 2 (Homo sapiens, UniProt O43353)	inactive
c1cc(OCCN2CCCCC2)cc(-c2n[nH]c3ccc(-c4nc[nH]n4)cc23)c1 [CC-401]	Receptor-interacting serine/threonine-protein kinase 2 (Homo sapiens, UniProt O43353)	inactive
CCN1CCN(Cc2ccc(Nc3ncc(F)c(-c4cc(F)c5nc(C)n(C(C)C)c5c4)n3)nc2)CC1 [ABEMACICLIB]	Receptor-interacting serine/threonine-protein kinase 2 (Homo sapiens, UniProt O43353)	inactive
O[C@H]1CC[C@H](Nc2ncc3nc(Nc4c(F)cc(F)cc4F)n([C@H]4CCOC4)c3n2)CC1 [TANZISERTIB]	Receptor-interacting serine/threonine-protein kinase 2 (Homo sapiens, UniProt O43353)	inactive

Record request — test call for CNC(=O)c1cccc(-c2ccc3c(N4CCOC[C@@H]4C)nc(N4CCOC[C@@H]4C)nc3n2)c1 [VISTUSERTIB]
inactive

Record request — test call for COc1cc(Nc2ncc(F)c(Nc3ccc4c(n3)N(COP(=O)(O)O)C(=O)C(C)(C)O4)n2)cc(OC)c1OC [FOSTAMATINIB]
inactive

Record request — test call for COc1cc(F)c(F)c(Nc2ccc(I)cc2F)c1NS(=O)(=O)C1(C[C@H](O)CO)CC1 [REFAMETINIB]
inactive

Record request — test call for CNC(=O)c1ccc(Nc2ncc(C(F)(F)F)c(NCc3nccnc3N(C)S(C)(=O)=O)n2)cc1 [DEFACTINIB]
inactive

Record request — test call for O=c1[nH]c([C@@H]2CCCN2)nc2c1oc1ccc(Cl)cc12
inactive

Record request — test call for COc1cc2ncnc(Nc3ccc(F)c(Cl)c3)c2cc1NC(=O)/C=C/CN1CCCCC1 [DACOMITINIB ANHYDROUS]
active
